The measurements presented in this section are drawn from patent US12522596B2.

Test: Pharmacokinetics in hGLP-1R mice after oral dosing
Format: in vivo, male C57BL/6J hGLP-1R mouse
Conditions: male, C57BL/6J hGLP-1R, mouse, plasma, po, 0.3 mg/kg, hGLP-1R mouse plasma, PO 0.3 mg/kg, 4 h; read-out: Mean Concentration
Readout name: concentration at 4 h (ng/mL)
Please reply with the bare figure in ng/mL and do not write the unit itself.

Note to self: concentration at 4 h recorded for "N#Cc1ccc(COc2cccc(C3CCN(Cc4nc5ccc(C(=O)O)cc5n4Cc4cncs4)CC3)n2)c(F)c1" was 3.74

* * *

Assay: Pharmacokinetics in hGLP-1R mice after oral dosing
Format: in vivo, male C57BL/6J hGLP-1R mouse
Conditions: male, C57BL/6J hGLP-1R, mouse, plasma, po, 3 mg/kg, hGLP-1R mice, total, PO 3.0 mg/kg; read-out: Tmax Median
Readout name: Tmax (min)
Numeric answer only, unit min assumed.

Given item N#Cc1ccc(COc2cccc(C3CCN(Cc4nc5ccc(C(=O)O)cc5n4Cc4cncs4)CC3)n2)c(F)c1 [Compound 2] , the value recorded as its Tmax is 30

* * *

Molecular target: human GLP-1R receptor (Homo sapiens)
Sequence (P43220 24-463): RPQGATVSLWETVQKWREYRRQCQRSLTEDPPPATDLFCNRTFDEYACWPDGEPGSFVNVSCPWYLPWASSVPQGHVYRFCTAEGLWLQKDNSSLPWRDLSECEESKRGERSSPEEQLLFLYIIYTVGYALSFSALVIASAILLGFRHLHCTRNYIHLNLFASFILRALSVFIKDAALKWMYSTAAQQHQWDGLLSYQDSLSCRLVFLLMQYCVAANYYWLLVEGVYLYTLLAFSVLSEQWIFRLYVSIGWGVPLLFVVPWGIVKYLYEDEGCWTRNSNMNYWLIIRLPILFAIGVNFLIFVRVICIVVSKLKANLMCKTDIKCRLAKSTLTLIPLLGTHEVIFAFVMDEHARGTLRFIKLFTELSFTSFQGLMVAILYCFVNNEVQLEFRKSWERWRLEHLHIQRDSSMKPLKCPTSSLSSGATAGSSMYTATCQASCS
Experiment: GLP-1R low expression cell assay (cAMP TR-FRET, CHO-K1_hGLP-1Rlow_clone10)
Conditions: CHO-K1_hGLP-1Rlow_clone10 cells
Readout name: pEC50
Remember the convention: pEC50 equals -log10 of concentration in molar.

Please review the following examples before continuing.
N#Cc1cc(F)c2nc(COc3cccc(C4CCN(Cc5nc6ccc(C(=O)O)cc6n5Cc5ccns5)CC4)n3)sc2c1 7.78
N#Cc1ccc(COc2cccc(C3CCN(Cc4nc5ccc(C(=O)O)cc5n4Cc4scnc4Cl)CC3)n2)c(F)c1 7.59
N#Cc1cnc(COc2cccc(C3CCN(Cc4nc5ccc(C(=O)O)cc5n4Cc4cncs4)CC3)n2)c(F)c1 7.56

# pEC50 (compound: "N#Cc1ccc(COc2ccnc([C@@]34CCN(Cc5nc6ccc(C(=O)O)cc6n5Cc5cncs5)C[C@@H]3C4)n2)c(F)c1" ) is 6.79

Looking up "Cc1ncsc1Cn1c(CN2CCC(c3cccc(OCc4ccc(C#N)cc4F)n3)CC2)nc2ccc(C(=O)O)cc21" , I found its pEC50 recorded as 8.60

# pEC50 of "O=C(O)c1ccc2nc(CN3CC[C@@]4(c5nccc(OCc6ccc(Cl)cc6F)n5)C[C@H]4C3)n(Cc3cncs3)c2c1" = 7.06

Per the records, this compound ( "N#Cc1ccc(COc2cccc(C3CCN(Cc4nc5ccc(C(=O)O)cc5n4Cc4nccs4)CC3)n2)c(F)c1" ) has pEC50 equal to 7.30

* * *

Assay: Pharmacokinetics in hGLP-1R mice after oral dosing
Format: in vivo, male C57BL/6J hGLP-1R mouse
Conditions: male, C57BL/6J hGLP-1R, mouse, plasma, po, 1 mg/kg, hGLP-1R mice, total, PO 1.0 mg/kg; read-out: T1/2 (converted)
Readout name: half-life
Record the result as number plus unit.

Field half-life (entry "N#Cc1ccc(COc2cccc(C3CCN(Cc4nc5ccc(C(=O)O)cc5n4Cc4cncs4)CC3)n2)c(F)c1" ) reads 1.42 h

* * *

Experiment: Metabolic stability in human hepatocytes
Type: in vitro ADME
Conditions: cryopreserved hepatocytes; human hepatocytes, 1 μM
Output label 1 for records whose half-life at 1 μM is lower than 2 h, label 0 for records at or above 2 h.

Consider the worked cases shown below.
Compound	Qualitative label
N#Cc1cnc(COc2cccc(C3CCN(Cc4nc5ccc(C(=O)O)cc5n4Cc4cncs4)CC3)n2)c(F)c1	label 0
Cc1ncsc1Cn1c(CN2CCC3(c4cccc(OCc5ccc(C#N)cc5F)n4)CC3C2)nc2ccc(C(=O)O)cc21 (stereo not shown)	label 1
N#Cc1ccc(COc2cccc(N3CCN(Cc4nc5ccc(C(=O)O)cc5n4Cc4cncs4)CC3)n2)c(F)c1	label 0
[2H]C([2H])(Oc1cccc(C2CCN(Cc3nc4ccc(C(=O)O)cc4n3Cc3cncs3)CC2)n1)c1ccc(C#N)cc1F	label 0
Cc1ncsc1Cn1c(CN2CCC(c3cccc(OCc4ccc(C#N)cc4F)n3)CC2)nc2ccc(C(=O)O)cc21	label 1

half-life at 1 μM under 2 h? Item: "N#Cc1ccc(COc2cccc(C3CCN(Cc4nc5ccc(C(=O)O)cc5n4Cc4cncs4)CC3)n2)c(F)c1"
label 0
